Data origin, for the record: ChEMBL document CHEMBL4382256

Kindly state CC50 at 48 h for each of the entries shown.
# ASSAY DETAILS: Cytotoxicity against BALB/c mouse splenocytes after 48 hrs by CCK-8 assay
# Format: cell-based, Splenocyte
The answer is to be given in µM; state only the numeric part.

Prompt line: Let me know recorded CC50 at 48 h for `COc1cc(-c2noc(C34CCC(N)(CC3)CC4)n2)cc(OC)c1OC` , thanks.
Response line: 25.8

Prompt line: Let me know recorded CC50 at 48 h for `COc1cc(/C(N)=N/OC(=O)Cc2c[nH]c3ccccc23)cc(OC)c1OC` , thanks.
Response line: 37.3

Prompt line: Let me know recorded CC50 at 48 h for `Fc1ccc(-c2noc(Cc3c[nH]c4ccccc34)n2)cc1` , thanks.
Response line: 13.6

Prompt line: Let me know recorded CC50 at 48 h for `COc1cc(-c2noc(C34CC5CC(CC(C5)C3)C4)n2)cc(OC)c1OC` , thanks.
Response line: 26.5

Prompt line: Let me know recorded CC50 at 48 h for `CCc1ccc(-c2nc(-c3cc(OC)c(OC)c(OC)c3)no2)cc1` , thanks.
Response line: 31.3

Prompt line: Let me know recorded CC50 at 48 h for `Clc1ccc(-c2noc(Cc3c[nH]c4ccccc34)n2)cc1` , thanks.
Response line: 42.8

Prompt line: Let me know recorded CC50 at 48 h for `COc1cc(-c2noc(C34CCC(NC(=O)OC(C)(C)C)(CC3)CC4)n2)cc(OC)c1OC` , thanks.
Response line: 12.7

Prompt line: Let me know recorded CC50 at 48 h for `COc1cc(-c2noc(-c3cccc(N)c3)n2)cc(OC)c1OC` , thanks.
Response line: 8.2
